- Tested on: HeLa MKYP cells
- Method description: Human mitophagy assay (HeLa mKeima assay, FACS)
- Format: cell-based
- Measurement context: Homo sapiens, HeLa; read-out: Mitophagy induction EC50
Can you tell me EC50 for the items I'm about to list?

Molecule: FC(F)(F)c1cc2c(NC3c4ccccc4OCC3N3CCC4(CCOC4)CC3)ncnc2[nH]1 (stereo not drawn) [EP-0040545]
Test system: HeLa MKYP cells
Observable: EC50
Result: > 25 µM
--
Molecule: FC1(F)CCN([C@H]2CCc3ccccc3[C@@H]2Nc2ncnc3[nH]c(C(F)(F)F)cc23)CC1 (single isomer, unassigned) [EP-0038393]
Test system: HeLa MKYP cells
Observable: EC50
Result: > 25 µM

Let us examine a further case.
Exercise: Recorded EC50 for CN(CC1CCOCC1)[C@H]1CCc2ccccc2[C@@H]1Nc1ncnc2[nH]c(C(F)(F)F)cc12 [EP-0038394] with HeLa MKYP cells, please?
Key: > 25 µM
